Entry source: ChEMBL document CHEMBL3400149

testProtocol: AUC in Sprague-Dawley rat at 10 mg/kg, po
Assay type: ADME, organism-based
Design: dose 10 mg/kg, route oral
protocolConditions: plasma
measureName: AUC (µM·h)
Respond with the bare value in µM·h.

CC(=O)N1N=C(c2cc(F)ccc2F)S[C@@]12c1cc(F)c(F)cc1OC[C@H]2CCN : 2.5

Pending compound:
Would you kindly share the measured AUC for CC(=O)N1N=C(c2cc(F)ccc2F)S[C@@]12c1cc(F)ccc1OC[C@H]2CCN ?
0.15

====

testProtocol: AUC in CD1 mouse at 5 mg/kg, po
Format: ADME, organism-based
Design: dose 5 mg/kg, route oral
protocolConditions: plasma
measureName: AUC
Give the number first and the unit second.

Would you kindly share the measured AUC for CC(=O)N1N=C(c2cc(F)ccc2F)S[C@@]12c1ccccc1OC[C@H]2CCN ?
0.3 µM·h
